These data points were gathered from the Immune Epitope Database (IEDB).

biological target: HLA-B*15:01; assay: IEDB peptide-MHC binding, purified MHC/competitive/radioactivity; filed as Kd, often an IC50 or EC50 that approximates it; bounds were set here for any values at or beyond the usual limits of such assays; details: source organism: Dengue virus 3 Martinique/1243/1999
Measured log10 of Kd of individual entries
reported-metric: log10 of Kd (log10 of the value in nM)

[[record]]
primary_sequence = "LMILLTGGAM"
reported_metric = "log10 of Kd"
reported_value = 0.46

[[record]]
primary_sequence = "MAMTDTTPF"
reported_metric = "log10 of Kd"
reported_value = 1.08

[[record]]
primary_sequence = "YQLWTALISL"
reported_metric = "log10 of Kd"
reported_value = 0.75

[[record]]
primary_sequence = "VQKEGVFHTM"
reported_metric = "log10 of Kd"
reported_value = 1.38

[[record]]
primary_sequence = "IQPFLALGF"
reported_metric = "log10 of Kd"
reported_value = 1.22

[[record]]
primary_sequence = "VTAETQNSSF"
reported_metric = "log10 of Kd"
reported_value = 1.41

[[record]]
primary_sequence = "EMCDDTVTY"
reported_metric = "log10 of Kd"
reported_value = 2.00

